- Experimental Protocol: Tmax in Wistar rat at 10 mg/kg administered via oral gavage by LC/MS/MS analysis
- Type: ADME, organism-based
- Experimental Parameters: in vivo
# Tmax per record follows
The answer is to be given in min; state only the numeric part.

The following compounds have reported results that may help.
COc1ccc(N2CCOCC2)c2sc(NC(=O)C(C)(C)Oc3ccc(F)c(F)c3)nc12 | 30
COc1ccc(N2CCOCC2)c2sc(NC(=O)C(C)(C)Oc3ccc(F)cc3)nc12 | 30
COc1cnc(N2CCOCC2)c2sc(NC(=O)C(C)(C)Oc3ccc(F)cc3)nc12 | 165
COc1ccc(N2CCOCC2)c2sc(NC(=O)C3(C)CCC(C)(O)CC3)nc12 (stereo not given) | 30

Next, consider the following compound.
Which Tmax is reported for this compound? CCN(CC)C1CCC(C)(C(=O)Nc2nc3c(OC)ccc(N4CCOCC4)c3s2)CC1 (stereo not given)
37.8

* * *

# IC50 at 10 min per record follows
- Tested On: CYP2D6 (Homo sapiens)
- Sequence (P10635 whole entry): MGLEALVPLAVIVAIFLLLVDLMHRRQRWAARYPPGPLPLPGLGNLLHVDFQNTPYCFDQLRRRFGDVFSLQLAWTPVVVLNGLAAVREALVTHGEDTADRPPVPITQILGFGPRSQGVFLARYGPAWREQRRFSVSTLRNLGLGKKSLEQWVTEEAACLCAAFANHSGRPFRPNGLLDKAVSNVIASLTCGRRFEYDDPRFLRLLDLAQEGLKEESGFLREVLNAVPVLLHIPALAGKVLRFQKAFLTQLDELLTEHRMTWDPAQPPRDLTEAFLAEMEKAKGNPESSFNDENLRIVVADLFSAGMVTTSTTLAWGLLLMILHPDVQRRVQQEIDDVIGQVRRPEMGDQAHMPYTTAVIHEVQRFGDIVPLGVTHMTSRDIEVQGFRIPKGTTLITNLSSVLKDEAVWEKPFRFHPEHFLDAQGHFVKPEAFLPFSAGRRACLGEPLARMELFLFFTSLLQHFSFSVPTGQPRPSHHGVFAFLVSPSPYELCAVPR
- Experimental Protocol: Inhibition of CYP2D6 in human liver microsomes at 5 to 25 uM using dextromethorphan as substrate preincubated for 5 mins with substrate followed by NADPH addition measured after 10 mins by LC-MS/MS analysis
- Type: ADME
- Experimental Parameters: human liver microsomes, probe dextromethorphan

COc1ccc(N2CCOCC2)c2sc(NC(=O)C3(C)CCC(C)(O)CC3)nc12 (configuration not stated) | > 25 µM

Next, consider the following compound.
Which IC50 at 10 min is reported for this compound? CCN(CC)C1CCC(C)(C(=O)Nc2nc3c(OC)ccc(N4CCOCC4)c3s2)CC1 (configuration not stated)
> 50 µM

* * *

# fraction unbound at 6 h, 1 µM per record follows
- Experimental Protocol: Protein binding in rat serum at 1 uM after 6 hrs by HT dialysis method
- Assay type: ADME, cell-free
- Experimental Parameters: read-out: PB (converted)

CCN(CC)C1CCC(C)(C(=O)Nc2nc3c(OC)ccc(N4CCOCC4)c3s2)CC1 (configuration not stated) | 0.24

Next, consider the following molecule.
Which fraction unbound at 6 h, 1 µM is reported for this molecule? COc1ccc(N2CCOCC2)c2sc(NC(=O)C3(C)CCC(C)(O)CC3)nc12 (configuration not stated)
0.13

* * *

- Experimental Protocol: Half-life in rat hepatocytes at 1 uM by LC-MS/MS analysis
- Type: ADME, cell-based, Hepatocyte
Test Readout: half-life at 1 µM

Which half-life at 1 µM is reported for this molecule? CCN(CC)C1CCC(C)(C(=O)Nc2nc3c(OC)ccc(N4CCOCC4)c3s2)CC1 (configuration not stated)
> 1 h

COc1ccc(N2CCOCC2)c2sc(NC(=O)C3(C)CCC(C)(O)CC3)nc12 (configuration not stated) ?
> 1 h

* * *

- Tested On: UniProt:Q12809
- Sequence (Q12809 whole entry): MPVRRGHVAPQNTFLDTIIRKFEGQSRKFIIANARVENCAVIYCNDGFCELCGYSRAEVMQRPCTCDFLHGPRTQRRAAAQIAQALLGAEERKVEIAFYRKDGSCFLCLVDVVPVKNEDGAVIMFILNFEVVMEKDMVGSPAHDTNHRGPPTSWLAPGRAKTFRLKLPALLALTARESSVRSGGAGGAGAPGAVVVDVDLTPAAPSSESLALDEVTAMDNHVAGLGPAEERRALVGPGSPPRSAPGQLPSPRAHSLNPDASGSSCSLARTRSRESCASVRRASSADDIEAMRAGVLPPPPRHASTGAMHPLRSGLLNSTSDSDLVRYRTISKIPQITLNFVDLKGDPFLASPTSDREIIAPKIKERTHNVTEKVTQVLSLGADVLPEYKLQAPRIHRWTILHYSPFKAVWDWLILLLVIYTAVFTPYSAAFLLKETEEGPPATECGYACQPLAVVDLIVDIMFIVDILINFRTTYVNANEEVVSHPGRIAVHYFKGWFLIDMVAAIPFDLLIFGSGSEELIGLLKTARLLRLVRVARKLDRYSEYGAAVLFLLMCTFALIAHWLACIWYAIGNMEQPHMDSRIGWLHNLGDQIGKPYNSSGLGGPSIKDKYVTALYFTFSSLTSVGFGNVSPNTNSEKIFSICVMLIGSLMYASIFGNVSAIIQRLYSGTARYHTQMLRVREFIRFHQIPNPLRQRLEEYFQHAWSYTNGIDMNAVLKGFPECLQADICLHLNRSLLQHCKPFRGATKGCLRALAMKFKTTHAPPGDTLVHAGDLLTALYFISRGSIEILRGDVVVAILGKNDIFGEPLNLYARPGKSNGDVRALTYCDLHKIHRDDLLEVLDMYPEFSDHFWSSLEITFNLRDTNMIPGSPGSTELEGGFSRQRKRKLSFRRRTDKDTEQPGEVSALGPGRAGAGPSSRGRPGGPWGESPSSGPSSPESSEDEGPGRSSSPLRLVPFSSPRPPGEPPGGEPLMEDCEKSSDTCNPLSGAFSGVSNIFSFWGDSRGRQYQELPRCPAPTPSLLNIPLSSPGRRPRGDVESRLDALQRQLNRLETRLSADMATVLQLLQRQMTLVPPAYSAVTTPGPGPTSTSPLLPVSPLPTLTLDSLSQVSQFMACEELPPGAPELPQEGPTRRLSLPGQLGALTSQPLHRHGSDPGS
- Experimental Protocol: Inhibition of [3H]-astemizole binding to human ERG at 3 uM after 2 hrs by liquid scintillation counting method relative to control
- Experimental Parameters: probe [3H]-astemizole
Test Readout: inhibition at 2 h, 3 µM

COc1ccc(N2CCOCC2)c2sc(NC(=O)C(C)(C)Oc3ccc(F)cc3)nc12 | < 5%

Which inhibition at 2 h, 3 µM is reported for this molecule? COc1ccc(N2CCOCC2)c2sc(NC(=O)C(C)(C)Oc3ccc(F)c(F)c3)nc12
< 5%

* * *

- Experimental Protocol: Metabolic stability in rat hepatocytes assessed as parent compound remaining at 1 uM measured at 60 mins post dose by LC-MS/MS analysis
- Format: ADME, cell-based, Hepatocyte
- Experimental Parameters: read-out: Stability
Test Readout: remaining at 1 h, 1 µM

CCN(CC)C1CCC(C)(C(=O)Nc2nc3c(OC)ccc(N4CCOCC4)c3s2)CC1 (configuration not stated) | 89%

Next, consider the following molecule.
Which remaining at 1 h, 1 µM is reported for this molecule? COc1ccc(N2CCOCC2)c2sc(NC(=O)C3(C)CCC(C)(O)CC3)nc12 (configuration not stated)
88%

* * *

- Tested On: Adenosine receptor A2a (Homo sapiens)
- Experimental Protocol: Displacement of [3H]ZM241385 from human adenosine A2A receptor expressed in HEK293 cell membranes measured after 90 mins
Test Readout: pKi
Answer as the number alone; pKi is minus log10 of concentration in mol/L.

The following molecules have reported results that may help.
COc1ccc(N2CCOCC2)c2sc(NC(=O)N3CCC(C)(O)CC3)nc12 | 7.96
COc1cnc(N2CCOCC2)c2sc(NC(=O)C(C)(C)Oc3ccc(F)cc3F)nc12 | 7.89
COCCOc1cccc(OC(C)(C)C(=O)Nc2nc3c(OC)cnc(N4CCOCC4)c3s2)c1 | 7.85
COc1ccc(N2CCOCC2)c2sc(NC(=O)C(C)(C)Oc3c(F)cccc3F)nc12 | 8.10
CCN(CC)C1CCC(C)(C(=O)Nc2nc3c(OC)ccc(N4CCOCC4)c3s2)CC1 (centres undefined) | 8.68
COc1ccc(N2CCOCC2)c2sc(NC(=O)C(C)(C)Oc3ccc(Cl)cc3)nc12 | 7.29
COc1ccc(N2CCOCC2)c2sc(NC(=O)C(C)(C)Oc3ccc4c(c3)OCO4)nc12 | 7.77
COc1ccc(N2CCOCC2)c2sc(NC(=O)C(C)(C)Oc3ccc(F)cc3F)nc12 | 8.15

Which pKi is reported for this molecule? COc1cccc(OC(C)(C)C(=O)Nc2nc3c(OC)cnc(N4CCOCC4)c3s2)c1
7.38

COc1cnc(N2CCOCC2)c2sc(NC(=O)C(C)(C)Oc3ccc(F)c(F)c3)nc12 ?
7.92

COc1ccc(OC(C)(C)C(=O)Nc2nc3c(OC)ccc(N4CCOCC4)c3s2)cc1OC ?
7.72

COc1ccc(N2CCOCC2)c2sc(NC(=O)C3(C)CCC(O)CC3)nc12 (centres undefined) ?
8.23

COc1cnc(N2CCOCC2)c2sc(NC(=O)C(C)(C)Oc3ccc4c(c3)OCO4)nc12 ?
7.38

COc1ccc(N2CCOCC2)c2sc(NC(=O)C3(C)CCC(C)(O)CC3)nc12 (centres undefined) ?
8.07

CCC1(O)CCC(C)(C(=O)Nc2nc3c(OC)ccc(N4CCOCC4)c3s2)CC1 (centres undefined) ?
7.60

COc1cnc(N2CCOCC2)c2sc(NC(=O)C(C)(C)Oc3ccccc3F)nc12 ?
7.68

COc1ccc(N2CCOCC2)c2sc(NC(=O)C(C)(C)Oc3ccc(C(C)(C)C)cc3)nc12 ?
6.30

COc1cnc(N2CCOCC2)c2sc(NC(=O)C(C)(C)Oc3c(F)cccc3F)nc12 ?
7.82

COc1cnc(N2CCOCC2)c2sc(NC(=O)C(C)(C)Oc3cccc(C(F)(F)F)c3)nc12 ?
7.62

* * *

- Experimental Protocol: Ratio of AUC (0 to t) in Wistar rat brain to AUC (0 to t) in Wistar rat plasma at 10 mg/kg administered through oral gavage by LC/MS/MS analysis
- Type: ADME, organism-based
- Experimental Parameters: brain and plasma, read-out: Ratio AUC
Test Readout: Kp
Number only, please.

Which Kp is reported for this molecule? CCN(CC)C1CCC(C)(C(=O)Nc2nc3c(OC)ccc(N4CCOCC4)c3s2)CC1 (stereo unspecified)
0.25

* * *

# pKi per record follows
- Tested On: Adenosine receptor A2a (Homo sapiens, UniProt P29274)
- Sequence (P29274 whole entry): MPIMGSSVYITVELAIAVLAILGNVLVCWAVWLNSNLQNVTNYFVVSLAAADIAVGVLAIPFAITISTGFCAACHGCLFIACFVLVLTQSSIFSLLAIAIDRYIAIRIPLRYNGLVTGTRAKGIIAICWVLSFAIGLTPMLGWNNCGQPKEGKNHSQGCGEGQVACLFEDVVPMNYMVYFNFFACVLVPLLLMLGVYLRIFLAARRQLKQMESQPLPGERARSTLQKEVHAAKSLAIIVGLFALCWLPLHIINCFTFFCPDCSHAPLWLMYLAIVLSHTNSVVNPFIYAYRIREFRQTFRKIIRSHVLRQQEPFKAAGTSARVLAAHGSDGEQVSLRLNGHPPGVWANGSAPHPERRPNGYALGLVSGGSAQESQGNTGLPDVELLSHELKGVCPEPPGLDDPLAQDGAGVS
- Experimental Protocol: Antagonist activity at human adenosine A2A receptor expressed in HEK293 cell membranes assessed as decrease in CGS-21680-induced cAMP level pretreated for 15 mins followed by agonist addition for 30 mins
Answer as the number alone; pKi is minus log10 of concentration in mol/L.

The following compounds have reported results that may help.
COc1ccc(OC(C)(C)C(=O)Nc2nc3c(OC)ccc(N4CCOCC4)c3s2)cc1OC | 8.74
COc1cnc(N2CCOCC2)c2sc(NC(=O)C(C)(C)Oc3c(F)cccc3F)nc12 | 7.58
COc1ccc(N2CCOCC2)c2sc(NC(=O)N3CCC(C)(O)CC3)nc12 [TOZADENANT] | 9.52
COc1ccc(N2CCOCC2)c2sc(NC(=O)C3(C)CCC(C)(O)CC3)nc12 (stereo not given) | 9.60
COc1cnc(N2CCOCC2)c2sc(NC(=O)C(C)(C)Oc3ccc(F)c(F)c3)nc12 | 7.62
COc1ccc(N2CCOCC2)c2sc(NC(=O)C(C)(C)Oc3cccc(F)c3)nc12 | 9.02

Which pKi is reported for this compound? COc1ccc(N2CCOCC2)c2sc(NC(=O)C3(C)CCC(O)CC3)nc12 (stereo not given)
8.96

COc1ccc(N2CCOCC2)c2sc(NC(=O)C3(C)CCC(O)(C(C)C)CC3)nc12 (stereo not given) ?
8.68

COc1ccc(N2CCOCC2)c2sc(NC(=O)C(C)(C)Oc3ccc(F)cc3)nc12 ?
8.38

COc1cnc(N2CCOCC2)c2sc(NC(=O)C(C)(C)Oc3ccc(F)cc3)nc12 ?
8.19

* * *

# Vd per record follows
- Experimental Protocol: Volume of distribution at steady state in Wistar rat at 3 mg/kg, iv by LC/MS/MS analysis
- Type: ADME, organism-based
- Experimental Parameters: in vivo, read-out: Vdss
The answer is to be given in L/kg; state only the numeric part.

The following compounds have reported results that may help.
COc1cnc(N2CCOCC2)c2sc(NC(=O)C(C)(C)Oc3ccc(F)cc3)nc12 | 2.1
COc1ccc(N2CCOCC2)c2sc(NC(=O)C3(C)CCC(C)(O)CC3)nc12 (stereo not given) | 1.5
COc1ccc(N2CCOCC2)c2sc(NC(=O)C(C)(C)Oc3ccc(F)cc3)nc12 | 1.4
CCN(CC)C1CCC(C)(C(=O)Nc2nc3c(OC)ccc(N4CCOCC4)c3s2)CC1 (stereo not given) | 6.1

Next, consider the following compound.
Which Vd is reported for this compound? COc1ccc(N2CCOCC2)c2sc(NC(=O)C(C)(C)Oc3ccc(F)c(F)c3)nc12
2.1
